Would you mind telling me the reported neurite formation score of each entry?
# Test system: Neuro-2a
# test_description: neurite formation score, plate-normalized to DMSO control mean 5.04 (score (0-8 scale)); higher = more or longer neurites
# protocol_conditions: 0.1 µM

Example entries and their recorded answers appear below.
INSERT INTO assay_data (compound, system_tested, result) VALUES
  ('c1cn2cc(-c3ccc4cn[nH]c4c3)nc(Nc3ccc(N4CCOCC4)cc3)c2n1', 'Neuro-2a', 5.08),
  ('COc1cc2ncnc(Sc3nnc(C)s3)c2cc1OC', 'Neuro-2a', 4.25),
  ('CS(=O)(=O)N1CCC(NC(=O)c2[nH]ncc2NC(=O)c2c(Cl)cccc2Cl)CC1', 'Neuro-2a', 5.09),
  ('CN1CCN(c2ccc3nc(-c4c(N)c5c(F)cccc5[nH]c4=O)[nH]c3c2)CC1 [Dovitinib Dilactic acid]', 'Neuro-2a', 4.92),
  ('c1cc(-c2cnn3cc(-c4ccc(OCCN5CCCCC5)cc4)cnc23)ccn1 [Dorsomorphin 2HCl]', 'Neuro-2a', 3.92),
  ('CN(C[C@@H]1COCCO1)S(=O)(=O)Nc1ccc2ccc3ncc(-c4cnn(C)c4)cc3c(=O)c2c1', 'Neuro-2a', 4.25);

Consider the following items and state reported neurite formation score for each.
1. O=C(c1ccc(Nc2nccc(-c3cc4ccccc4s3)n2)cc1)N1CCC(N2CCCC2)CC1
2. CC[C@H](CO)Nc1nc(NCc2ccccc2)c2ncn(C(C)C)c2n1 [Roscovitine (Seliciclib,CYC202)]
3. O=C1NC(=O)C(c2ccccc2[N+](=O)[O-])=C1Nc1ccc(O)c(Cl)c1
4. COc1cc(N2CCC(N3CCN(C)CC3)CC2)ccc1Nc1ncc(Cl)c(Nc2ccccc2S(=O)(=O)C(C)C)n1
5. Cc1cnc(Nc2ccc(OCCN3CCCC3)cc2)nc1Nc1cccc(S(=O)(=O)NC(C)(C)C)c1

Reply:
3.75
4.38
5.21
5.54
3.58

I need neurite formation score for every entry listed below, if you could help.
1. O=C(O)[C@]1(Cc2cccc(Nc3nccs3)n2)CC[C@@H](Oc2cccc(Cl)c2F)CC1
2. CNC(=O)c1cc(COc2nnc(Nc3ccc(Cl)cc3)c3ccoc23)ccn1
3. CNC(=O)c1cc(Oc2ccc(NC(=O)c3cccc(C(F)(F)F)c3)cc2)ccn1
4. C=CC(=O)Nc1ccc2ncnc(Nc3ccc(OCc4cccc(F)c4)c(Cl)c3)c2c1

Reply:
1: 3.92; 2: 4.92; 3: 5.54; 4: 4.21

For each listed entry, give its neurite formation score.
1. c1cncc(CN2CCC(n3ncc4c(N5CCOCC5)nc(-c5ccc6[nH]ccc6c5)nc43)CC2)c1
2. Cc1ccc(-c2csc3ncnc(SCCC(=O)O)c23)cc1
3. CC1(COc2ccc3c(c2)ncn3-c2ccc3cccc(N4CCC(N)CC4)c3n2)COC1

Reply:
1. 0.751
2. 4.58
3. 4.21

# return neurite formation score for each item in the list
1. O=C(NCCCNc1nc(Nc2cccc(NC(=O)N3CCCC3)c2)ncc1I)c1cccs1
2. CCc1cc(Nc2nccc(-c3c(-c4ccc(OC)c(C(=O)Nc5c(F)cccc5F)c4)nc4ccccn34)n2)c(OC)cc1N1CCC(N2CCN(S(C)(=O)=O)CC2)CC1
3. COc1cc(Nc2nc3ccccc3nc2NS(=O)(=O)c2ccc(NC(=O)c3ccc(C)c(OC)c3)cc2)cc(OC)c1
4. CNC(=O)c1cc(Oc2ccc(NC(=O)Nc3ccc(Cl)c(C(F)(F)F)c3)cc2)ccn1 [Sorafenib]
5. COc1cc2nccc(Oc3ccc(NC(=O)C4(C(=O)Nc5ccc(F)cc5)CC4)cc3)c2cc1OC
6. Cn1cc(-c2ccc3nnc(Sc4ccc5ncccc5c4)n3n2)cn1
7. CCCCCCCCCCCC(=O)OCC(CO)OC(=O)CCCCCCCCCCC (stereo not given)

Reply:
1. 4.54
2. 4.71
3. 4.21
4. 4.71
5. 4.38
6. 5.04
7. 5.08
